protocol details: yeast display, Sf9 membrane polyspecificity reagent, FACS + sequencing; frameworks hold sequencing errors
quantity: polyreactivity (PSR sort gate)

* QVQHVESGGGLVQAGGSLRLICAASGLTFPYYAMGWYRQDAGKVSELVAAITWSGGTTDYADSVKGRFTISRDNAKNTVYFKMITLKPEDTAVYFCAARVLWKGYYWGQGTQVTVSS | low polyreactivity
* QVQLVESGGGLVQAGGSLRLSCAASGSTFGANPMGWYRQAPGKEREFVAAISGSGTTTYYADSVKGRFTISRDNAKNTVYLQMNSLKTEDTAVYYCAKTRKAHWLEYWGQGTQVTVSS | low polyreactivity
* QVQLVESGGGLVQAGASLRLSCAASGFTFTPYAMGWYRQAPGKERELVAGITSGVGRKYADSVKGRFTISRDNAKNTVYLQMNSLKPEDTAVYFCAARYDHWGQGTQVTVSS | high polyreactivity
* QVQLVESGGGLVQAGGSLRLSCAASGLTFVQNAMGWYRQAPGKERELVAAISTSGGSTYYADSVKGRFTISRDNAKNTVYLQMNSLKPEDTAVYYCAAYPRSWWRGYDYWGQGTQVTVSS | high polyreactivity
* QVQLVESGGGLVQAGGSLRLSCAASGSTFFYYAMGWYRKAPGKERDFVAAISKSGGRTYYADTVKGRFTISRDNAKNTVYLQMNSLKPEDTAVYYCAAYYEYRRDYWGQCTQVTVSS | high polyreactivity
* QVQLVESGGGLVQAGGSLRLSCAASGSTIFAYAMGWYRQAPGKERELVAAIRRGGTSTYYADSVKGRFTISRDNAKNTVYLQMNSLKPEDTAVYYCNKAYITKRGVSGSNDYWGQGTQVTVSS | low polyreactivity
* QVQLVESGGGLVQAGGSLRLSCAAYGRIFSTYAMGWYRQAPGKERELVAAINSIGGRTYYADSVKGRFTISRDNAKNTVYLQMNSLKPEDTAVYYCAAGYRTRRGLGYYYWGQGTQVTVSS | high polyreactivity
